System: Streptococcus sp.
Assay: In vitro antibacterial evaluation: minimum inhibitory concentration (MIC), broth dilution method
Assay type: cell-based
Settings: broth dilution, inoculum 5×10^5 CFU/mL, 18 hours at 35° C.
endpoint: MIC Streptococcus pneumoniae (GC 1894) (µg/mL)
API: value field is a number in µg/mL; no unit string.

compound	MIC Streptococcus pneumoniae (GC 1894), µg/mL
COc1ccc2cc(COC3C(OC4C(CO)OC(Oc5ccc(CC6NC(=O)C(C(C)c7ccccc7)NC(=O)CNC(=O)C(CO)NC(=O)C(CC7CNC(=N)N7C7OC(CO)C(O)C(O)C7O)NC(=O)C(CC7CNC(=N)N7)NC6=O)cc5)C(O)C4O)OC(CO)C(O)C3O)ccc2c1 (stereo not shown) [Example 245c]	32
CC(c1ccccc1)C1NC(=O)CNC(=O)C(CO)NC(=O)C(C(O)C2CNC(=N)N2C2OC(CO)C(O)C(O)C2O)NC(=O)C(C(O)C2CNC(=N)N2)NC(=O)C(Cc2ccc(OC3OC(CO)C(OC4OC5COC(c6ccccc6)OC5C(O)C4O)C(O)C3O)c(I)c2)NC1=O (stereo not shown)	64

// below: MIC Streptococcus pneumoniae (GC 1894) requested for another compound
Specify the recorded MIC Streptococcus pneumoniae (GC 1894) for CC(c1ccccc1)C1NC(=O)CNC(=O)C(CO)NC(=O)C(C(O)C2CN(Cc3ccc(C(F)(F)F)cc3)C(=N)N2C2OC(CO)C(O)C(O)C2O)NC(=O)C(C(O)C2CNC(=N)N2)NC(=O)C(Cc2ccc(OC3OC(CO)C(OC4OC5COC6(OC5C(O)C4O)C4CC5CC(C4)CC6C5)C(O)C3O)cc2)NC1=O (stereo not shown) , system: Streptococcus sp.. 0.5
